Test system: Bacillus subtilis ATCC 6633
Experiment: Antibacterial MIC, microdilution susceptibility test (CLSI)
Assay type: cell-based
Settings: Bacillus subtilis, ATCC6633, value in parentheses; read-out: MIC (μmol), B. Subtilis (ATCC 6633) (converted)
Labelling: MIC reported below 2 µM becomes y; at or above becomes n.

> print(dat)
                           smiles.structure  label.value
1  O=C(NC[C@H]1CN(c2ccc(N3CCOCC3)c(F)c2)C(=O)O1)c1ccc(F)cc1            n
2  CC(=O)NC[C@H]1CN(c2ccc(N3CCOCC3)c(F)c2)C(=O)O1            y
3  O=C(NC[C@H]1CN(c2ccc(N3CCOCC3)c(F)c2)C(=O)O1)c1ccc([N+](=O)[O-])cc1            n

Just wondering, is MIC of CNc1ccc(C(=O)NC[C@H]2CN(c3ccc(N4CCOCC4)c(F)c3)C(=O)O2)cc1 below 2 µM?
n

What would you report for O=C(NC[C@H]1CN(c2ccc(N3CCOCC3)c(F)c2)C(=O)O1)c1ccc(Cl)cc1 ?
n
